assay.comment: amyloid nucleation score (Sup35N fusion, yeast selection) (log enrichment); library NNK3; higher = more nucleation; inactive = no reads after selection;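 also: zero at mode of non-aggregating sequences after 7 days selection at 30°C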
experimental.endpoint: amyloid nucleation score

Some substances with recorded amyloid nucleation score:
LNPTAYYVVPLVLALAWISH | inactive
HRVYLPGRWRLMISLSC | -0.201
YRMNDGNDGICMVWLRNSAY | inactive
IYDSRWTTNDSSCTTVFTEQ | inactive
LAVYPTGTDRDFGF | inactive

Consider now this further substance.
[ask] What does the data say about its amyloid nucleation score? Entry: "NILLND"
[reply] inactive

----------
assay.comment: amyloid nucleation score (Sup35N fusion, yeast selection) (log enrichment); library NNK1; higher = more nucleation; inactive = no reads after selection
Reported amyloid nucleation score maps to class as: low end = under -0.1, middle = from -0.1 up to 0.6, high end = 0.6 and over

TLMDQSLYIWGSN | low end
WCSLGCNYTVLFTLLGMVNT | middle
IIDPDREYTVSN | low end
MTSLFLCKVTRM | middle
LTSWLDYDDISEWHRSDGFR | high end

Now take the following substance into account.
[ask] Note: place this substance into its band. Item: "CHVIIVQRYFMSVTLSQCWW"
[reply] middle

----------
assay.comment: amyloid nucleation score (Sup35N fusion, yeast selection) (log enrichment); library NNK3; higher = more nucleation; inactive = no reads after selection
experimental.endpoint: amyloid nucleation score

DAIPARVYYGCQFILCRNDL | 2.85
CNRWNHL | inactive
LLTHRFVAGFHRKAHSCCDS | inactive
NTPNCYFVLRRVILMRLKLS | inactive
NTVTHR | inactive

[ask] For the substance "SNSRNSTGVVQMTRIPKMMR" , what amyloid nucleation score is on record?
[reply] inactive

[ask] Return reported amyloid nucleation score; argument: "GDTHESFVGRTVYPDRLESH"
[reply] inactive

[ask] Find the recorded amyloid nucleation score belonging to "IGNCFMTMGRLVSRQDSVPM" and report it.
[reply] -0.427

[ask] Look at this substance and give its reported amyloid nucleation score. "VYNQNAKVTN"
[reply] inactive

[ask] Endpoint output: amyloid nucleation score of "GCSRWCFGDTGIE" . Value?
[reply] inactive

[ask] Please give the measured amyloid nucleation score for this substance: "ASMYIMFTTVNKILFIEISD"
[reply] 1.69

[ask] Consider the substance "DWEDCVV" and give its measured amyloid nucleation score.
[reply] inactive

[ask] Fill in the blank: the reported amyloid nucleation score of "RESDMRSAWGSDVVCLLGDS" is ____.
[reply] 1.11

[ask] Can you share its amyloid nucleation score? I mean this substance: "RLFDLVYSGLVFRKHSHTAM"
[reply] inactive

----------
assay.comment: amyloid nucleation score (Sup35N fusion, yeast selection) (log enrichment); library NNK1; higher = more nucleation; inactive = no reads after selection
Classes based on amyloid nucleation score: low range = under 0.07, mid range = from 0.07 up to 0.9, high range = 0.9 and over

Recorded results for 3 substances are shown here.
ESMRFHRGEVGPLWDVRWGA | high range
LPMLLFAHITFNMLNDVSPN | high range
IGMRCWTACSSKRFESCRRV | mid range

[ask] GET /class?item= "MVFRGFHKSQLGSFELAVGG"
[reply] mid range

[ask] Which bin, given its amyloid nucleation score, does "LTSQSLVVNFLLYCTG" occupy?
[reply] high range

[ask] Returns: class label. Input: "LCEHKSRLVEDAKGGET"
[reply] low range

[ask] For the record "HYVGSLMVSW" , report the class its amyloid nucleation score corresponds to.
[reply] mid range

[ask] Lab log: "LMLGCGCECHVSSVSQKENM" — assign amyloid nucleation score category
[reply] mid range

[ask] Hey, which category is "LLKSKRL" in, do you know?
[reply] mid range

[ask] Please indicate the class for "FVTQAGRGMHR" based on its amyloid nucleation score.
[reply] mid range

[ask] Would you mind sorting "AVRHLPAPRHSMCLIWYCNC" into the appropriate category?
[reply] mid range

[ask] Lab note: sort "TLSFIRAYSVPHQVLRMESL" into the matching amyloid nucleation score band.
[reply] mid range

[ask] Class for "LVLCSFYYDKAWSPESCLME" ?
[reply] low range

[ask] // bin(item) where item = "TLTPTILILFNFIT"
[reply] high range

[ask] Band assignment needed for "TYVCDMEHSVYCYYVEAQLY" please.
[reply] mid range

[ask] Consider "ILVPLNQGEIWRNKIRYWI" . To which amyloid nucleation score class does it belong?
[reply] low range

[ask] Would you mind sorting "HNFEFTRLAHLDSSTL" into the appropriate category?
[reply] mid range

[ask] Input "ILHYWVAVSMAQWICIGLKK" ; output its category
[reply] mid range

[ask] Using the reported amyloid nucleation score, which band applies to "VVVWVFHFYAC" ?
[reply] high range

[ask] Sort into band: "AWFGYISYWNEFFLWDCFWS"
[reply] low range

[ask] Could you tell me which band "CHGCLGG" belongs to?
[reply] low range
